Experiment: ATP-based viability of Huh7 replicon cells – cell-based, CellTiter-Glo luminescence, basal, 48 h, cytotoxicity control for HCV replication inhibitor project, primary screen (AID 1143);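 also: Huh7 hepatoma cells carrying a hepatitis C replication reporter with no stimulus; test concentration not given here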
Conditions: higher = more signal, called active from +8 up or from −8 down
measured.parameter: z-score

molecule | measured.parameter | measured.number
[N-]=[N+]=NCc1ccccc1[C@@H]1OC(c2ccc(OCCCO)cc2)=N[C@]1(CCS(=O)(=O)c1ccccc1)C(N)=O | z-score | -0.369
O=C1C2C=CC(C(O)C=Cc3ccc([N+](=O)[O-])cc3)N(n3cnnc3)C2C(=O)N1Cc1ccccc1 (configuration not stated) | z-score | -0.274
O=C1OCCC=C[C@H]2OC34C=CCN(CCN5CCOCC5)C(=O)[C@H]3N(CCCCCO)C(=O)[C@@H]4C12 (some centres not stated) | z-score | 0.201
COCCOC(=O)N1C(=O)[C@@]2(c3ccccc31)[C@H](C(=O)N1CCc3cc(OC)c(OC)cc3C1)[C@H]1C(=O)O[C@H](c3ccccc3)[C@H](c3ccccc3)N1[C@@H]2c1ccc(O)cc1 | z-score | -3.5
O=C1O[C@H](c2ccccc2)[C@H](c2ccccc2)N2[C@H]1[C@@H](C(=O)NC[C@H](O)c1ccccc1)[C@]1(C(=O)Nc3ccc(C#CC4=CCCCC4)cc31)[C@H]2c1ccccc1OCCO | z-score | -6.13
CCCCCCc1nc(-c2ccc(-c3ccc(Cl)c(Cl)c3)o2)c(C)c2c1[Si](C(C)C)(C(C)C)OC2 | z-score | -5.66
[N-]=[N+]=Nc1ccccc1C[C@]1(C(=O)NCc2ccccc2)N=C(c2ccc(OCCCO)cc2)O[C@H]1c1ccccc1N=[N+]=[N-] | z-score | -4.05
COC(=O)c1c(CC[C@@H](CO)NC(=O)N[C@@H](Cc2ccccc2)Cn2cc(-c3ccccn3)nn2)oc(C(=O)N2CCOCC2)c1C(=O)OC | z-score | -0.625
CN(C)CCCC[C@@H]1NC(=O)[C@H]2C[C@@H](C(=O)NCCCCCN)[C@@H](c3cccc(OCCO)c3)N2C1=O | z-score | -1.01
CC(C)(C)OC(=O)CC[C@@]1(C(=O)N2CCCCC2)N=C(c2ccc(OCCCO)cc2)O[C@@H]1c1ccccc1 | z-score | -2.99
CN(C)CCCCNC(=O)[C@@H]1C[C@@H]2C(=O)N[C@@H](CCCCN)C(=O)N2[C@@H]1c1ccc(O)cc1 | z-score | -0.151
O=C1NC(=O)C2C1C=CC(C(O)c1ccc(-c3ccccc3)s1)N2Nc1ccc(Cl)cc1Cl (configuration not stated) | z-score | -1.1
COc1ccc(C(=O)Nc2cccc(CN3C(=O)[C@]4(O[C@H](CCn5cc(CCO)nn5)[C@@H]([Si](C)(C)c5ccc(OC)cc5)[C@@H]4C)c4ccccc43)c2)cc1 | z-score | -7.97
CCOc1ccc(N2C(=O)CSC2c2cccc([N+](=O)[O-])c2)cc1 (configuration not stated) | z-score | -0.689
COC(=O)[C@@]1(Cc2ccccc2)[C@H]2c3cc(C(=O)N(C)C)n(Cc4ccc(OC)c(OC)c4)c3C[C@H]2CN1C(=O)c1ccccc1 | z-score | -2.81
C=CC[C@]1(C(=O)NCc2ccccc2)N=C(c2ccc(OCCCO)cc2)O[C@H]1c1ccccc1CN=[N+]=[N-] | z-score | -3.52
CCN(CC)c1ccc(N2CC=CC34O[C@@H]5C=CCOC(=O)[C@@H]5[C@H]3C(=O)N(CCCCCCO)[C@@H]4C2=O)cc1 (some centres not stated) | z-score | -0.289
